- Test system: EfPiwi piRISC loaded with L1MC piRNA (26 nt)
- PROCEDURE_DETAILS: pre-steady-state target cleavage rate (min^-1); auxiliary factor: 500 nM Ephydatia muelleri Gtsf1; guide: L1MC piRNA 5'p-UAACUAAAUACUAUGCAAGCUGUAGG; MIWI and MILI are mouse PIWI proteins and EfPiwi is from a freshwater sponge; tags in brackets are library labels; higher = faster piRNA-guided slicing of the target
Entry flag: rule met if pre-steady-state target cleavage rate reaches 0.005; rule not met if it does not.

>>> label_class("UCCUGGAUGAGCUUGCAUAGUAUCUUAGUUA")
"rule met"
>>> label_class("UCCUGGUACUGCUUGCAUAGUAUUUAGUUA")
"rule met"
>>> label_class("UCCUCCUACAGCUUGCUUAGUAUUUAGAAA")
"rule met"
>>> label_class("UCCUGGUUCAGCAUGCAUAGUAUUUAGUUA")
"rule met"
>>> label_class("UCCUGCUACAGCUUGCAUAGUAUAUAGUUA")
"rule not met"

-- ask Say whether UCCUGCUACAGCUUGGAUAGUAUUUAGUAA shows pre-steady-state target cleavage rate of 0.005 or more.
-- reply rule not met

-- ask Hi, just wondering whether UCCUGCUACGAGCUUGCAUAGUAUUUAGUUA shows pre-steady-state target cleavage rate of 0.005 or higher.
-- reply rule met

-- ask Is pre-steady-state target cleavage rate at least 0.005? Consider UCCUGGUACAGCUUGCAUAGUAUUAACAAA
-- reply rule not met

-- ask Reported pre-steady-state target cleavage rate reaches at least 0.005 for UCCUCCUACAGCUUGCAUAGAAUUUUGUUA ?
-- reply rule not met

-- ask Could you tell me if the measured pre-steady-state target cleavage rate of UCCUGGAUGUGCUUGCAUACUAUUUAGAUA reaches 0.005 or more?
-- reply rule not met

-- ask Exam item: decide whether the reported pre-steady-state target cleavage rate for UCCUGCUACACCUUGCAUAGUAAUUAGUUA is at least 0.005.
-- reply rule met

-- ask Textbook exercise: given the entry UCCUGCUACAGCUUGGUAAGUAUUUAGUUA , state whether its pre-steady-state target cleavage rate is greater than or equal to 0.005.
-- reply rule not met

-- ask Say whether UCCUGCUACAGCUUGGAUUGUAUUUAGUUA shows pre-steady-state target cleavage rate of 0.005 or more.
-- reply rule not met

-- ask Reported pre-steady-state target cleavage rate at or above 0.005? UCCUGGAUGAGCUUGCAUAGUAUAAAGUUA
-- reply rule met

-- ask hey, is pre-steady-state target cleavage rate for this one >= 0.005? UCCUGCUACAGCUUGCAUACUAUUUAGAAA
-- reply rule not met

-- ask Determine whether this sequence has pre-steady-state target cleavage rate no lower than 0.005: UCCUGGAUCUCGUUGCAUAGUAUUUAGUUA
-- reply rule met

-- ask Would you say UCCUGGAUCAGCUUGCAUAGUAUUUAGAAA shows pre-steady-state target cleavage rate at minimum 0.005?
-- reply rule not met

-- ask Answer whether pre-steady-state target cleavage rate of UCCUGGAUGUCGAACGUUAGUAUUUAGAUA is greater than or equal to 0.005.
-- reply rule not met

-- ask Reported pre-steady-state target cleavage rate reaches at least 0.005 for UCCUCCUACAGCUUCGAUAGUAUUUAGUAA ?
-- reply rule not met
